Measured values drawn from patent US10556936B2 for this set.

Tested on: PBMC cells obtained from mite allergic patients and non-allergics
experimentalDetails: Ex vivo stimulation of PBMC: cytokine production (IFN-gamma, IL-9, IL-10, IL-17, IL-31)
Type: cell-based, human
assaySetup: non-allergic individuals; IL-13
Method: This example relates to the further testing of immunogenicity of the proteins identified in Example 1. […] T cell reactivity was. • Ex vivo stimulation of PBMC cells obtained from mite allergic patients (n=16) and non-allergics (n=6): Determined by measuring the production of the cytokines; IFN-gamma, IL-9, IL-10, IL-17 and IL-31 following stimulation with test protein in concentration up to 10 ug/ml. […]
measureName: % non-allergic individuals with cytokine production in ex-vivo T cell assay IL-13 (%)

A020: house dust mite protein; SEQ ID NO: 15 (Der f), 16 (Der p); Blo t SEQ ID NO: 316 printed as A0019 (protein) MSKPIFYYHPFSGPCRTVSTVAKILNVDMEMKKLDLLTKEHLNPEFLKVNPFHKVPTFVDSDGFVVDESRVIAMYLVESRKPDSFLYPKNDLKKRIQIDRWLHYDINLSTTISAPMFCVFRGHQVQDYQVEQGKETLKTLDGVMQSFEGKFLTGADQFTLADIAMYFSLNTMEVYPKYFKFDDYPNLKSWYHRVAEALKQYDTEGTIPKAIETMKQFIQQRAAEAEKH	0
